Target: NAALADase activity of PSMA (Homo sapiens, UniProt Q04609)
Sequence (Q04609 whole entry): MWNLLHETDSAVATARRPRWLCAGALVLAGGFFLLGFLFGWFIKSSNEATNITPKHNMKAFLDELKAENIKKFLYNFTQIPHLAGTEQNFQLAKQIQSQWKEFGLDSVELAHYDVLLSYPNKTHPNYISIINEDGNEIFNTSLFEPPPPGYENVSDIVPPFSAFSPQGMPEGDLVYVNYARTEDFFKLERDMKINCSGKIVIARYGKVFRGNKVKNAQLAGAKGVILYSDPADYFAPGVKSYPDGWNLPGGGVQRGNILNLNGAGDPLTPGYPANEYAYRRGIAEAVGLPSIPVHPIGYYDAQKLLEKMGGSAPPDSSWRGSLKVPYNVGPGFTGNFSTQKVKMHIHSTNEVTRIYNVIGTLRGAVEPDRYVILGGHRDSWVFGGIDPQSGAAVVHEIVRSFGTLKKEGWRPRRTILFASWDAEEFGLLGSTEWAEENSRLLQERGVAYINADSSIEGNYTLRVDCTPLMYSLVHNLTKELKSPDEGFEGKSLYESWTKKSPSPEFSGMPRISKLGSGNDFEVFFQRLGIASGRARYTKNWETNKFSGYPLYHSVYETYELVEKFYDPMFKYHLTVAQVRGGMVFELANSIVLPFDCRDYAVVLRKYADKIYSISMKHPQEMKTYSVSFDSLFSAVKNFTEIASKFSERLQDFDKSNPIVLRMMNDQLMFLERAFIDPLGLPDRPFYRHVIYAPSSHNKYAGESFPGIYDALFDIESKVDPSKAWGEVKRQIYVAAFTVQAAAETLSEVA
Test: NAALADase inhibition in LNCaP cell lysates
parameter: pKi
pKi is defined as minus the log10 of a concentration measured in mol/L.

Provide value of pKi for this record tested with NAALADase activity of PSMA (Homo sapiens, UniProt Q04609): O=C(O)CC[C@H](NC(=O)N[C@@H](CCCCNCc1ccc(I)cc1)C(=O)O)C(=O)O [MIP-1072]
8.34

* * *

Dear all, this message contains pKd results, target or system PSMA on human prostate cancer LNCaP cells (Homo sapiens).
pKd is defined as minus the log10 of a concentration measured in mol/L.

O=C(O)CC[C@H](NC(=O)N[C@@H](CCCCNC(=O)Nc1ccc(I)cc1)C(=O)O)C(=O)O [MIP-1095] = 9.09

Now let's try a different one.
Provide value of pKd for this record tested with PSMA on human prostate cancer LNCaP cells (Homo sapiens): O=C(O)CC[C@H](NC(=O)N[C@@H](CCCCNCc1ccc(I)cc1)C(=O)O)C(=O)O [MIP-1072]
Sequence (Q04609 whole entry): as above
8.42

Origin of the recorded values: paper PMC4114247
